meta.source: paper PMC2810227

# test target: human pol κ (Homo sapiens, UniProt Q9UBT6)
# Construct: A truncated form of pol κ (residues 1–560) with 6 x His-tags attached at the C-terminus; 6xHis (C); made in house; host or cells: E. coli
# Sequence (Q9UBT6 1-560): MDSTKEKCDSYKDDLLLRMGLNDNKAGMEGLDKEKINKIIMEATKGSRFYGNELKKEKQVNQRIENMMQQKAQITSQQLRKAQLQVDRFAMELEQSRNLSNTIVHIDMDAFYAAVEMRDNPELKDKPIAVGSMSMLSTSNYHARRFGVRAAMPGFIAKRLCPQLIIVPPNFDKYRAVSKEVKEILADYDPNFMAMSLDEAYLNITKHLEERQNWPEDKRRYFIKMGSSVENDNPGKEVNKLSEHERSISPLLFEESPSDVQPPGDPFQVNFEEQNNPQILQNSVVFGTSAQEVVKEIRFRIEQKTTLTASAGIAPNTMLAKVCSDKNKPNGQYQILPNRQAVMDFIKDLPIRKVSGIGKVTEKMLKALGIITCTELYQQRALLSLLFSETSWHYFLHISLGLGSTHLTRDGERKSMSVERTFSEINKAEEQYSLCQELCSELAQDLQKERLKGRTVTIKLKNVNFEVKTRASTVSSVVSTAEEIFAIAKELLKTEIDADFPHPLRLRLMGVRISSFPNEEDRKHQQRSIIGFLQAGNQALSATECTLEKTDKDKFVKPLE
# test description: Kinetic analysis of the inhibition of human pol κ
# Type: biochemical
# condition: Dixon plot; read-out: inhibition constant (Ki) for the DNA template-primer
assay readout: Ki

INSERT INTO results (compound, test_target, val) VALUES
  ('C/C=C/c1occ(C(=O)c2c(OC)cc(OC)cc2C(=O)OC)c(=O)c1OC [compound 1, 3-O-methylfunicone]', 'human pol κ (Homo sapiens, UniProt Q9UBT6)', '1.3 µM');

###

# test target: human pol η (Homo sapiens, UniProt Q9Y253)
# Construct: A truncated form of human pol η (residues 1–511); His6 (C)
# Sequence (Q9Y253 1-511): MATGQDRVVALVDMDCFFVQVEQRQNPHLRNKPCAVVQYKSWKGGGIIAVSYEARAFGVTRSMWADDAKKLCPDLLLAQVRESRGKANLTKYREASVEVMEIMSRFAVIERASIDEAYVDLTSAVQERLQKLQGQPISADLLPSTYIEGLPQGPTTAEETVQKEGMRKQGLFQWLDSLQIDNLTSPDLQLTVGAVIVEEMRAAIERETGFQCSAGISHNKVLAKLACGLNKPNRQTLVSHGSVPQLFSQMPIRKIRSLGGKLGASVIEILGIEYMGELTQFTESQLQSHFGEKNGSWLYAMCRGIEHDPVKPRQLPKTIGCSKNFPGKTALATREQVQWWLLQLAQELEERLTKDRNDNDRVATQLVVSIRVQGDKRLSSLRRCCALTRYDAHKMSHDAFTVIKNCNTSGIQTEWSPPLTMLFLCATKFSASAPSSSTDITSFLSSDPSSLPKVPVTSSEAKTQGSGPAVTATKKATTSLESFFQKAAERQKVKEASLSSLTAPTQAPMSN
# test description: DNA polymerase assay, pol η
# condition: poly(dA)/oligo(dT)18 and dTTP; 0.05 units enzyme; read-out: 50% inhibition of pol η (IC50)
assay readout: IC50 (µM)

INSERT INTO results (smiles_repr, test_target, val) VALUES
  ('C/C=C/c1occ(C(=O)c2c(OC)cc(OC)cc2C(=O)OC)c(=O)c1OC', 'human pol η (Homo sapiens, UniProt Q9Y253)', 50.1);

###

# test target: human pol κ (Homo sapiens)
# Construct: A truncated form of pol κ (residues 1–560) with 6 x His-tags attached at the C-terminus; 6xHis (C)
# Sequence (Q9UBT6 1-560): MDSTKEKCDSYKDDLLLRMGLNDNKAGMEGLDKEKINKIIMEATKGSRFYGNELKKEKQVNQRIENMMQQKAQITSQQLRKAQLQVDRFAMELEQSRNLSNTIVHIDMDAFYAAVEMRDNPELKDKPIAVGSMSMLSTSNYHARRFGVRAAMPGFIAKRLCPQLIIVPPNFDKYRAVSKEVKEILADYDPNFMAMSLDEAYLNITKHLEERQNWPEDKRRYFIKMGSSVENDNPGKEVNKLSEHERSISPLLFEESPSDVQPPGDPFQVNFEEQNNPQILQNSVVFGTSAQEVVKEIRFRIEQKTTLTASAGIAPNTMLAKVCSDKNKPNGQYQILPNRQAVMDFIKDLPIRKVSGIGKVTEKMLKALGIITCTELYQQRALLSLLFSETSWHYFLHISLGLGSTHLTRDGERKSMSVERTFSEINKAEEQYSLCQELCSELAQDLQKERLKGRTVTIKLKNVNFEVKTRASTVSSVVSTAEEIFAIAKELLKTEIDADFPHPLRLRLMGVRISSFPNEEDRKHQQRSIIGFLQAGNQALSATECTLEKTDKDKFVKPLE
# test description: DNA polymerase assay, pol κ
# condition: poly(dA)/oligo(dT)18 and dTTP; 0.05 units enzyme; read-out: 50% inhibition of pol κ (IC50)
pIC50: −log10 of the molar value.
assay readout: pIC50

INSERT INTO assay_data (compound, test_target, assay_readout, val) VALUES
  ('C/C=C/c1occ(C(=O)c2c(OC)cc(OC)cc2C(=O)OC)c(=O)c1OC [compound 1, 3-O-methylfunicone]', 'human pol κ (Homo sapiens)', 'pIC50', 4.90);
